target: human P2X4 (Homo sapiens, UniProt Q99571); assay: Human P2X4 HEK Cell FLIPR Assay; format: cell-based; details: HEK293, HEK293 cells, agonist Bz-ATP at EC80; percentage of maximal inhibition; read-out: Human P2X4 HEK Cells (FLIPR Assay) avg Efficacy [%]
Sequence (Q99571 whole entry): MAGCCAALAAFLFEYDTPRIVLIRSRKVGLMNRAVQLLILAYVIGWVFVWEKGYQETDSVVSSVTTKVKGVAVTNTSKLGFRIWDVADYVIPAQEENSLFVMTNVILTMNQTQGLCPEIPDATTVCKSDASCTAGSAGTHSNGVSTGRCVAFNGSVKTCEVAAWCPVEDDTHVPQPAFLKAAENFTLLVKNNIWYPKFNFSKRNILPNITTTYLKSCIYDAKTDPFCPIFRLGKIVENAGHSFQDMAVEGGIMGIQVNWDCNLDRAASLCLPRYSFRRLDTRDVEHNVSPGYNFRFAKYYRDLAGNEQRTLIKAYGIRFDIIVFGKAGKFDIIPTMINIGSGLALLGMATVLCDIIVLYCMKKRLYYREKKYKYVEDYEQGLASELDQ
Use 80% as the dividing line for Emax, with the line itself on the Condition met side and lower values as Condition not met.

[ask] I'd appreciate it if you could say whether COc1ccc(Cl)cc1CC(=O)Nc1ccc(-n2cc(C#N)cn2)c(S(N)(=O)=O)c1 has Emax at least equal to 80%.
[reply] Condition met

New cases:
[ask] I'd appreciate it if you could say whether NS(=O)(=O)c1cc(NC(=O)Cc2ccccc2F)ccc1-n1cc(C(F)(F)F)cn1 has Emax at least equal to 80%.
[reply] Condition not met

[ask] What about NS(=O)(=O)c1cc(NC(=O)Cc2cccc(C(F)(F)F)c2Cl)ccc1-n1cc(Cl)cn1 ?
[reply] Condition met

[ask] What about Cc1ccc(CC(=O)Nc2ccc(-n3cc(C#N)cn3)c(S(N)(=O)=O)c2)cc1 ?
[reply] Condition not met
